The values you see were collected from patent US11214803B2.

Tested on: Yap1 mRNA
assay name: Inhibition of human Yap1 mRNA in epidermoid carcinoma A-431 xenograft tumors (Example 27)
Type: in vivo
assay setup: 50 mpk daily (5 doses), A-431 xenografts in NCr-Foxn1nu mice, 6-8 hours post final dose, relative to PBS

substance | Yap1 mRNA in tumors, % control (% control)
958499 (ATTAGAGTATGTGGCA; 3-10-3 cEt gapmer, further chemistry not given here) [compound 958499] | 29
1198440 (AAGTGTATGTCAGAAG; cEt, 2'-MOE, 5-methylcytosine, phosphorothioate modifications, further chemistry not given here) [compound 1198440] | 21
1198605 (GTAATATTGCAATCTG; modified gapmer, further chemistry not given here) [compound 1198605] | 30

* * *

assay name: Cynomolgus monkey tolerability, hematology (Example 34)
Format: in vivo, cynomolgus monkeys
assay setup: cynomolgus monkey, in vivo, sc, 35 mg/kg
Decision: LYM compared against 50%; not below it gives Fulfilled, below it gives Not fulfilled.

substance | answer label
1198623 (CTAAGTAAGGTTTCCC; modified gapmer, further chemistry not given here) [compound 1198623] | Fulfilled
1198728 (TATTAGAGTATGTGGC; modified gapmer, further chemistry not given here) [compound 1198728] | Fulfilled
958499 (ATTAGAGTATGTGGCA; 3-10-3 cEt gapmer, further chemistry not given here) [compound 958499] | Not fulfilled
1198872 (TGTATGTCAGAAGAGT; chemically modified gapmer, further chemistry not given here) [compound 1198872] | Not fulfilled
1198440 (AAGTGTATGTCAGAAG; cEt, 2'-MOE, 5-methylcytosine, phosphorothioate modifications, further chemistry not given here) [compound 1198440] | Fulfilled

* * *

Yap1 mRNA, % UTC by entry:
Test system: Yap1 mRNA
assay name: Dose-dependent inhibition of human Yap1 in A-431 cells (Example 8, 10,000 cells per well, RTS4814)
Type: cell-based
assay setup: 2000.00 nM; A-431 cells, 10,000 cells per well, free uptake, approximately 48 hours, RTS4814
Strand notation (5' to 3'): a small letter for the sugar, then the base; units joined by * are phosphorothioate-linked, units joined directly phosphodiester-linked; [ ] holds rarer units or linkages, { } end groups; capitals alone tell only the bases. k = constrained ethyl (cEt); [5mC] = 5-methylcytosine; d = 2'-deoxy (DNA)

substance | target under test | unit text | Yap1 mRNA, % UTC
1075041 (antisense kG*kA*kT*dT*dA*dT*dA*dA*dA*dG*dA*dG*dG*k[5mC]*kT*k[5mC]) [compound 1075041] | Yap1 mRNA | % UTC | 7
1075053 (antisense kA*kA*kT*dA*dT*dA*dT*dA*d[5mC]*dT*dT*dG*dA*kT*k[5mC]*k[5mC]) [compound 1075053] | Yap1 mRNA | % UTC | 5
1076399 (antisense kG*kA*kT*dA*dA*d[5mC]*dT*dT*dA*dG*dA*dG*dA*kT*kG*kT) [compound 1076399] | Yap1 mRNA | % UTC | 6

* * *

Tested on: Yap1 mRNA
assay name: Antisense inhibition of human Yap1 in A-431 cells by cEt gapmers, single dose (Example 3, RTS36584)
Assay type: cell-based
assay setup: Table 12; A-431 cells, 5,000 cells per well, free uptake, 2,000 nM modified oligonucleotide, approx. 48 hours; RTS36584; normalized to RIBOGREEN; Yap1 mRNA relative to untreated control cells
Strand notation (5' to 3'): a small letter for the sugar, then the base; units joined by * are phosphorothioate-linked, units joined directly phosphodiester-linked; [ ] holds rarer units or linkages, { } end groups; capitals alone tell only the bases. k = constrained ethyl (cEt); [5mC] = 5-methylcytosine; d = 2'-deoxy (DNA)
Measured YAP1 (% UTC) by item
measured endpoint: YAP1 (% UTC)

substance | unit text | reported measurement
958754 (antisense k[5mC]*k[5mC]*kT*dT*dA*dG*dG*dA*dA*dG*dG*d[5mC]*dT*k[5mC]*k[5mC]*k[5mC]) [Compound 958754] | % UTC | 31
958459 (antisense k[5mC]*kT*kG*dA*dA*dG*d[5mC]*d[5mC]*dG*dA*dG*dT*dT*k[5mC]*kA*kT) [Compound 958459] | % UTC | 28
958634 (antisense kT*k[5mC]*k[5mC]*dT*dT*dA*dA*d[5mC]*d[5mC]*d[5mC]*dG*dG*dG*kT*kT*kT) [Compound 958634] | % UTC | 61
958714 (antisense kG*kA*kG*d[5mC]*dA*d[5mC]*dT*dG*d[5mC]*dG*d[5mC]*d[5mC]*d[5mC]*kT*kG*kG) [Compound 958714] | % UTC | 82
958509 (kA*kT*kG*dT*dT*dA*dT*dG*dT*dT*dT*dG*dG*kG*kT*kG; antisense) [Compound 958509] | % UTC | 4
958619 (antisense kT*kG*kG*dG*dT*d[5mC]*dT*dA*dG*d[5mC]*d[5mC]*dA*dA*kG*kA*kG) [Compound 958619] | % UTC | 71
958514 (kT*kA*k[5mC]*dT*dA*dG*dT*d[5mC]*dA*dT*dG*dT*dA*kT*kT*k[5mC]; antisense) [Compound 958514] | % UTC | 20
958519 (k[5mC]*k[5mC]*k[5mC]*d[5mC]*dT*dA*dG*dG*d[5mC]*dA*d[5mC]*dT*dA*kT*k[5mC]*k[5mC]; antisense) [Compound 958519] | % UTC | 20
958564 (kT*k[5mC]*k[5mC]*dA*dA*dA*dT*dT*dG*dA*dA*dG*dG*kG*k[5mC]*k[5mC]; antisense) [Compound 958564] | % UTC | 62
958664 (kA*k[5mC]*kG*dA*dA*d[5mC]*dT*dA*dA*dG*dG*dT*dG*kT*kA*k[5mC]; antisense) [Compound 958664] | % UTC | 40
958474 (antisense kG*kT*kG*dT*d[5mC]*dT*d[5mC]*d[5mC]*dT*dT*dA*dG*dA*kT*k[5mC]*k[5mC]) [Compound 958474] | % UTC | 3

* * *

Collected YAP1 (% UTC) values appear next to each entry.
Tested on: Yap1 mRNA
assay name: Antisense inhibition of human Yap1 in SNU-449 cells by modified oligonucleotides, single dose (Example 5, RTS36584)
Type: cell-based
assay setup: Table 44 experiment; SNU-449 cells, 10,000 cells per well, free uptake, 2,000 nM, approximately 48 hours; RTS36584; Yap1 mRNA normalized to RIBOGREEN, relative to untreated control cells
Strand notation (5' to 3'): a small letter for the sugar, then the base; units joined by * are phosphorothioate-linked, units joined directly phosphodiester-linked; [ ] holds rarer units or linkages, { } end groups; capitals alone tell only the bases. e = 2'-O-(2-methoxyethyl) (MOE); k = constrained ethyl (cEt); [5mC] = 5-methylcytosine; d = 2'-deoxy (DNA)
measured endpoint: YAP1 (% UTC)

substance | target under test | unit text | reported measurement
1198476 (antisense kA*kG*dG*dT*dA*dT*dA*dA*d[5mC]*dT*dG*eG*kG*e[5mC]*kA*eA) [Compound 1198476] | Yap1 mRNA | % UTC | 31
1074461 (kG*kA*kA*dA*dT*dT*dG*dT*d[5mC]*dT*d[5mC]*dA*dT*kG*k[5mC]*k[5mC]) [Compound 1074461] | Yap1 mRNA | % UTC | 7
1198507 (kT*kT*dA*dT*dA*dT*dG*dG*dT*dT*dT*eT*kG*eT*kG*eT; antisense) [Compound 1198507] | Yap1 mRNA | % UTC | 17
1198517 (kA*kA*dT*dA*dT*dT*dG*d[5mC]*dA*dA*dT*e[5mC]*kT*eG*kT*e[5mC]; antisense) [Compound 1198517] | Yap1 mRNA | % UTC | 36
1198906 (kT*kA*dT*dA*dT*dT*dA*dG*dA*dG*dT*kA*dT*kG*dT*kG; antisense) [Compound 1198906] | Yap1 mRNA | % UTC | 56
1198520 (kT*kG*dT*dA*dA*dT*dA*dT*dT*dG*d[5mC]*eA*kA*eT*k[5mC]*eT; antisense) [Compound 1198520] | Yap1 mRNA | % UTC | 51
1198902 (kT*kT*dA*dG*dA*dG*dT*dA*dT*dG*dT*kG*dG*k[5mC]*dA*kA; antisense) [Compound 1198902] | Yap1 mRNA | % UTC | 13
1198525 (kA*kG*dT*dG*dT*dA*dT*dG*dT*d[5mC]*dA*eG*kA*eA*kG*eA; antisense) [Compound 1198525] | Yap1 mRNA | % UTC | 2
1198534 (kA*kG*dT*dA*dA*dG*dG*dT*dT*dT*d[5mC]*e[5mC]*k[5mC]*eA*kG*eA; antisense) [Compound 1198534] | Yap1 mRNA | % UTC | 30
1198528 (kT*kA*dA*dA*dG*dT*dG*dT*dA*dT*dG*eT*k[5mC]*eA*kG*eA; antisense) [Compound 1198528] | Yap1 mRNA | % UTC | 14
1198513 (k[5mC]*kA*dA*d[5mC]*dT*d[5mC]*dT*dT*dA*dT*dA*eT*kG*eG*kT*eT; antisense) [Compound 1198513] | Yap1 mRNA | % UTC | 63
1198518 (kT*kA*dA*dT*dA*dT*dT*dG*d[5mC]*dA*dA*eT*k[5mC]*eT*kG*eT; antisense) [Compound 1198518] | Yap1 mRNA | % UTC | 71
1198526 (kA*kA*dG*dT*dG*dT*dA*dT*dG*dT*d[5mC]*eA*kG*eA*kA*eG; antisense) [Compound 1198526] | Yap1 mRNA | % UTC | 2
